test system: MDA-MB-231 breast; experiment: NCI tumour cell line growth inhibition, 48 h
Listed next: entries and their corresponding TGI.
Measurement name: TGI (µM)

compound=COc1ccccc1NC(=O)c1sc2nc3c(cc2c1N)C(=O)CCC3 target_under_test="MDA-MB-231 breast" unit_text=µM lt_gt_eq=> readout_value=100
compound="O=C(Nc1nnc(-c2ccccc2)o1)C(SC(=S)N1CCCCC1)c1ccccc1 (stereo not drawn)" target_under_test="MDA-MB-231 breast" unit_text=µM lt_gt_eq=> readout_value=100
compound="COC(=O)[C@@]12C(=O)C=CC(=O)[C@@H]1C1C(=CC2COC(C)=O)O[C@@H]2OC3(CCCCC3)O[C@H]12 (stereo partly drawn)" target_under_test="MDA-MB-231 breast" unit_text=µM lt_gt_eq== readout_value=39.9
compound=CCNC(=O)[C@@H]1CCCN2C(=O)CC[C@H](NC(=O)[C@H](Cc3ccc(OP(=O)(O)O)cc3)NC(C)=O)C(=O)N12 target_under_test="MDA-MB-231 breast" unit_text=µM lt_gt_eq=> readout_value=25
compound=O=C1c2c(Cl)c(Cl)c(Cl)c(Cl)c2C(=O)N1CCN(c1c(Cl)ssc1=O)c1c(Cl)ssc1=O target_under_test="MDA-MB-231 breast" unit_text=µM lt_gt_eq=> readout_value=100
compound=CCOC(=O)c1c2c3c(cccc3[nH]c1=O)Sc1ncccc1-2 target_under_test="MDA-MB-231 breast" unit_text=µM lt_gt_eq=> readout_value=100
compound=N#CN=C(N)c1sc2nc3c(c(-c4ccc(Br)cc4)c2c1N)CCCC3 target_under_test="MDA-MB-231 breast" unit_text=µM lt_gt_eq== readout_value=70.8
compound=COc1cc2c[n+](C)c3c4cc(OC)c(OC)cc4c(OC)cc3c2cc1OC target_under_test="MDA-MB-231 breast" unit_text=µM lt_gt_eq== readout_value=19.8
compound=COc1ccc(OC)c(/C=N/NC(=O)Cc2csc3nc(-c4ccc(Br)cc4)cn23)c1 target_under_test="MDA-MB-231 breast" unit_text=µM lt_gt_eq== readout_value=41.2
compound=O=C(/C=C1\N=C(c2ccccc2)N(c2nc3ccc(Sc4ccccc4)cc3[nH]2)C1=O)/C=C/c1ccccc1 target_under_test="MDA-MB-231 breast" unit_text=µM lt_gt_eq== readout_value=53.8
compound="O=C(O)c1ccccc1NC(c1ccccc1)c1ccc2cccnc2c1O (stereo not drawn)" target_under_test="MDA-MB-231 breast" unit_text=µM lt_gt_eq=> readout_value=62.4
compound=CCc1nc(N)nc(N)c1-c1ccc(NCCN)c([N+](=O)[O-])c1 target_under_test="MDA-MB-231 breast" unit_text=µM lt_gt_eq=> readout_value=100
compound=C=C1C(=O)O[C@H]2[C@H]1CC/C(CNC(=O)Cc1c[nH]c3ccccc13)=C\CC[C@@]1(C)O[C@@H]21 target_under_test="MDA-MB-231 breast" unit_text=µM lt_gt_eq== readout_value=17.5
compound="CC12CCC3C(CCC4Cc5[nH]c6ccccc6c5CC43C)C1CCC2O (stereo not drawn)" target_under_test="MDA-MB-231 breast" unit_text=µM lt_gt_eq== readout_value=7.16
compound=NC(=O)NNCc1ccccc1 target_under_test="MDA-MB-231 breast" unit_text=µM lt_gt_eq=> readout_value=100
compound="CCC(C#N)(c1ccccc1)N(CCc1ccccc1)C(=O)c1ccccc1 (stereo not drawn)" target_under_test="MDA-MB-231 breast" unit_text=µM lt_gt_eq== readout_value=52.2
compound=C=CCn1c(=O)c2ccccc2[n+]2c(C)c(C(=O)OCC)sc12 target_under_test="MDA-MB-231 breast" unit_text=µM lt_gt_eq=> readout_value=100
compound="COc1ccc(/C=C2\\CCCC(CN(C)C)C2=O)cc1 (stereo not drawn)" target_under_test="MDA-MB-231 breast" unit_text=µM lt_gt_eq== readout_value=8.61
compound="CC(=O)OC1=c2ccccc2=C(O)C2C1C=NN2C(C)=O (stereo not drawn)" target_under_test="MDA-MB-231 breast" unit_text=µM lt_gt_eq=> readout_value=100
compound="COC(=O)CCc1cc(OC)c(O)c(C(Cc2ccc(OC)c(OC)c2)C(=O)OC)c1 (stereo not drawn)" target_under_test="MDA-MB-231 breast" unit_text=µM lt_gt_eq=> readout_value=100
compound=Cc1c2cc[n+](C)cc2c(C)c2c1sc1ccccc12 target_under_test="MDA-MB-231 breast" unit_text=µM lt_gt_eq== readout_value=11.2
compound="CC[C@]1(O)CC(OC2CC(N(C)C)C(O)C(C)O2)c2c(cc3c(c2O)C(=O)c2c(O)cccc2C3=O)[C@@H]1C(=O)OC (stereo partly drawn)" target_under_test="MDA-MB-231 breast" unit_text=µM lt_gt_eq== readout_value=4.2
compound=COc1cc(C=O)ccc1Oc1nnnn1-c1ccccc1 target_under_test="MDA-MB-231 breast" unit_text=µM lt_gt_eq=> readout_value=100
compound=Clc1ncnc(Cl)c1Cl target_under_test="MDA-MB-231 breast" unit_text=µM lt_gt_eq=> readout_value=100
compound="Cc1ccc2c(c1)C(C)Cc1c(ncnc1-n1cnc3ccccc31)N2C (stereo not drawn)" target_under_test="MDA-MB-231 breast" unit_text=µM lt_gt_eq== readout_value=18.2
compound=O=C(Nc1cccc(-n2ccc3c(NC(=O)c4ccccc4)nccc32)c1)c1ccc(N2CCOCC2)c(C(F)(F)F)c1 target_under_test="MDA-MB-231 breast" unit_text=µM lt_gt_eq== readout_value=3.42
compound=Cc1cccc(NC(=O)CCc2ccc(N3C(N)=NC(N)=NC3(C)C)cc2)c1 target_under_test="MDA-MB-231 breast" unit_text=µM lt_gt_eq=> readout_value=100
compound=Cc1ccc(S(=O)(=O)OC2CCN(C)CC2)cc1 target_under_test="MDA-MB-231 breast" unit_text=µM lt_gt_eq=> readout_value=100

Source listed as PubChem BioAssay (NCI).
